- system_name: T1, HUMAN B7H3 (Biacore analyte) (human, UniProt Q5ZPR3 29-461, limits assumed)
- T1 construct: also called hB7H3
- T1 sequence (looked up): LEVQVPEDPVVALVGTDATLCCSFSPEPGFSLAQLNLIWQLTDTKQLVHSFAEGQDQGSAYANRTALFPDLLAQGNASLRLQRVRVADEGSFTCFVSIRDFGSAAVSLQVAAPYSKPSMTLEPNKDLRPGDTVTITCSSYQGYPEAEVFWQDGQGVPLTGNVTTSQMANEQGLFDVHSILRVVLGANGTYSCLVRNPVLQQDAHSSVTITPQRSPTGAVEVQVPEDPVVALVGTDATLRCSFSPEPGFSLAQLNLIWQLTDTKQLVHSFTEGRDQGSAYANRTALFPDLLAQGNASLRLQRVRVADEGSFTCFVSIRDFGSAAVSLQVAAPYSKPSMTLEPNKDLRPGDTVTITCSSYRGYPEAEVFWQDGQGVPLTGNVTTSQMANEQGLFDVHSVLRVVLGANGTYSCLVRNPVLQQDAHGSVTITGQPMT
- experiment_summary: SPR, Biacore 8K, antibody captured, B7H3 as analyte, 1:1 binding
endpoint_label: Kd

[
  {
    "binder": "10-G6-C4-B2_hVH2-VL1_PTM (antibody, V domains shown, humanized, PTM-optimized antibody from 10-G6-C4-B2) VH: EVQLVESGGGLVQPGGSLRLSCATSGFTLSDYYMSWVRQAPGKGLEWVSFMRNKANAYTTEYSASVRGRFTISRDTSKSTIYLQMNSLRAEDTAVYYCVRDREGRPFAYWGQGTLVTVSS VL: DIVMTQSPDSLAVSLGERATINCKSSQSLLNAINQKNFLTWYQQKPGQPPKLLIYWASTRESGVPDRFSGSGSGTDFTLTISSLQAEDLAVYYCQNDYTYPLTFGQGTKLEIK",
    "endpoint_result": "0.851 nM"
  }
]
